system: Human complement C1s enzyme (Homo sapiens)
Construct: purified from human serum, Complement Technology, Inc; purchased Complement Technology, Inc; host or cells: human serum
assay.summary: Human C1s Enzyme Assay
Type: biochemical
test.parameters: human C1s 1.16 nM, 5 min preincubation, substrate Z-L-Lys-SBzl 100 μM, A405; read-out: C1s Protease Activity
recorded.endpoint: IC50

## Input Request the reported IC50 associated with `C[C@@]12C[C@@H]1N(C(=O)CNC(=O)c1ccc(Oc3ccccc3)nc1)[C@H](C(=O)NCc1cc(C(=N)N)cs1)C2`
## Output < 100 nM

## Input `CC(C)[C@@H](NC(=O)[C@@H]1CC2(CN1C(=O)CNC(=O)CCCOc1ccccc1)OCCO2)c1cc(C(=N)N)cs1` ?
## Output > 1000 nM

## Input `N=C(N)c1csc(CNC(=O)[C@@H]2CC3(CN2C(=O)CNC(=O)CCCOc2ccccc2)OCCO3)c1` ?
## Output < 100 nM

## Input `C[C@@]12C[C@@H]1N(C(=O)CNC(=O)c1ccc(Oc3ccc(C(F)(F)F)cc3)cc1)[C@H](C(=O)NCc1cc(C(=N)N)cs1)C2` ?
## Output 100 to 1000 nM

## Input `C[C@@H](NC(=O)[C@@H]1C[C@@H](OC(F)F)CN1C(=O)CNC(=O)c1ccc(C(=O)c2ccccc2)cc1)c1cc(C(=N)N)cs1` ?
## Output < 100 nM

---

Answer each item with its documented pIC50.
system: Human complement C1s enzyme (Homo sapiens)
Construct: purified from human serum, Complement Technology, Inc; purchased Complement Technology, Inc; host or cells: human serum
Sequence (P09871 438-688 limits assumed): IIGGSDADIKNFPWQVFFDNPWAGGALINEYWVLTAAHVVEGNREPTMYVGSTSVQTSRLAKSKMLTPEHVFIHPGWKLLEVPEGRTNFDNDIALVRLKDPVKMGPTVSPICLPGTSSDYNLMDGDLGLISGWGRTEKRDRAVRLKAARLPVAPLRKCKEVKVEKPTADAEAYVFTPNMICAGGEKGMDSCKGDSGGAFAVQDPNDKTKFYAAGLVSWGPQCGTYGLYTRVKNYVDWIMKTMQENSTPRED
Sequence (P09871 16-437 partner limits assumed): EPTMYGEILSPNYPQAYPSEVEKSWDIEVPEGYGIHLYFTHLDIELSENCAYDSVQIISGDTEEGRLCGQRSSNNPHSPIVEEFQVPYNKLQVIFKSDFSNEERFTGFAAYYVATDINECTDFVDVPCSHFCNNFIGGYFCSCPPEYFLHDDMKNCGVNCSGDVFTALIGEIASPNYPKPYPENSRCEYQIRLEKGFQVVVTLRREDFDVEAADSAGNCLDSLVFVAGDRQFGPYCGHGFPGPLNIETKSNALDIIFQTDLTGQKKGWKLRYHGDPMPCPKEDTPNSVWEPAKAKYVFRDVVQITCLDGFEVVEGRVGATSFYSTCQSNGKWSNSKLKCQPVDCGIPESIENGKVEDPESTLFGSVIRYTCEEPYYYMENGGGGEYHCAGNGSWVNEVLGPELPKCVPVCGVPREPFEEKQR
assay.summary: Human C1s Enzyme Assay
Type: biochemical
test.parameters: human C1s 1.16 nM, 5 min preincubation, substrate Z-L-Lys-SBzl 100 μM, A405; read-out: C1s Protease Activity
pIC50: −log10 of the molar value.

## Input Request the reported pIC50 associated with Cc1ccccc1[C@@H]1C[C@@H](C(=O)NCc2cc(C(=N)N)cs2)N(C(=O)CNC(=O)CCCOc2ccccc2)C1 [Compound 155]
## Output > 7.00

## Input COC[C@@]1(F)C[C@@H](C(=O)N[C@H](C)c2cc(C(=N)N)cs2)N(C(=O)CNC(=O)c2ccc(C(=O)c3ccccc3)cc2)C1 [Compound 218] ?
## Output > 7.00

## Input N=C(N)c1csc(CNC(=O)[C@@H]2C[C@](F)(CN)CN2C(=O)CNC(=O)CCCOc2ccccc2)c1 [Compound 109] ?
## Output > 7.00

## Input C[C@@]12C[C@@H]1N(CCNC(=O)CCCOc1ccccc1)[C@H](C(=O)NCc1cc(C(=N)N)cs1)C2 [Compound 134] ?
## Output < 6.00

## Input C[C@@H](NC(=O)[C@@H]1CC2(CN1C(=O)CNC(=O)CCCOc1ccccc1)OCCO2)c1ccc(C(=N)N)s1 [Compound 133] ?
## Output > 7.00

## Input N=C(N)c1csc([C@@H](NC(=O)[C@@H]2CC3(CN2C(=O)CNC(=O)CCCOc2ccccc2)OCCO3)C2CC2)c1 [Compound 178] ?
## Output < 6.00

Ref: patent US20250171423A1
